experiment: Stability in mouse liver microsomes assessed as compound remaining after 30 mins; format: ADME, microsome; conditions: read-out: Stability
MEASURED_ATTRIBUTE: remaining at 0.5 h (%)
Supply the numeric figure in %, leaving out any unit text.

Incoming: remaining at 0.5 h for "COc1cc(NC(=S)NCCCn2cncc2C)ccc1OCCCCc1ccnc(N)c1" ?
Outgoing: 50

====

molecular target: UniProt:Q9CYK2
Sequence (Q9CYK2 whole entry): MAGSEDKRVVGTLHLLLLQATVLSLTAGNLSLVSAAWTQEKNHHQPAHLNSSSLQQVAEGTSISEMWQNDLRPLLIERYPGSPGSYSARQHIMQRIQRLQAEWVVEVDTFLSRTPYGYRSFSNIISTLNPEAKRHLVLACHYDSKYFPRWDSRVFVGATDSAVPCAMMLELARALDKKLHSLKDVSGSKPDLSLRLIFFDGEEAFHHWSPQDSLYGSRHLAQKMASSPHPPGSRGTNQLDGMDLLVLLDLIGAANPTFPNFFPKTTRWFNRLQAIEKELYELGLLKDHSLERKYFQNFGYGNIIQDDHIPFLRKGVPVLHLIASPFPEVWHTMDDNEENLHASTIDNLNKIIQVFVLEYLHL
MEASURED_ATTRIBUTE: IC50 (nM)
Supply the numeric figure in nM, leaving out any unit text.

Incoming: IC50 for "COc1cc(NC(=S)NCCCn2cncc2C)ccc1OCCCCc1ccnc(N)c1" ?
Outgoing: 12.6

====

system: Mus musculus; assay: Antialzheimer activity in human amyloid beta (3 to 40) induced acute ICR mouse Alzheimer's disease mouse model assessed as inhibition of amyloid beta (N3pE to 40) formation in brain at 10 mM, icv by sandwich ELISA; format: functional
Recorded inhibition (INH) values for a group of compounds are listed next.
Supply the numeric figure in %, leaving out any unit text.

>  <SMILES>
COc1cc(NC(=S)NCCCn2cncc2C)ccc1OCCCCN1CCNCC1

>  <inhibition (INH) (%)>
29.2

$$$$
>  <SMILES>
COc1cc(NC(=S)NCCCn2cncc2C)ccc1OCCN1CCNCC1

>  <inhibition (INH) (%)>
77.2

$$$$
>  <SMILES>
COc1cc(NC(=S)NCCCn2cncc2C)ccc1OCCCCc1ccnc(N)c1

>  <inhibition (INH) (%)>
66.1

$$$$
>  <SMILES>
COc1cc(NC(=S)NCCCn2cncc2C)ccc1OCCc1ccnc(N)c1

>  <inhibition (INH) (%)>
38

$$$$
>  <SMILES>
COc1ccc(NC(=S)NCCCn2cncc2C)cc1OC

>  <inhibition (INH) (%)>
41.6

$$$$

Incoming: inhibition (INH) for "COc1cc(NC(=S)NCCCn2cncc2C)ccc1OCCCCNc1ncccn1" ?
Outgoing: 27.3

Incoming: Another: "COc1cc(NC(=S)NCCCn2cncc2C)ccc1OCCCN"
Outgoing: 64.6

Incoming: Another: "COc1cc(NC(=S)NCCCn2cncc2C)ccc1OCCC1CCN(C)CC1"
Outgoing: 18.7

Incoming: Another: "COc1cc(NC(=S)NCCCn2cncc2C)ccc1OCCCCN(C)C"
Outgoing: 35.7

Cited source: ChEMBL document CHEMBL4007443
